Reference source: ChEMBL document CHEMBL2390820

Entries annotated with measured Ratio CC50/EC50
Assay: Selectivity index, ratio of CC50 for Huh5-2 cells to EC50 for HCV genotype 1b infected in Huh5-2 cells
Parameters: species or system Huh-5-2
Enter a number only.

smiles.structure | recorded.value
Fc1ccc(-c2nc3ccc(N4CCOCC4)cn3c2-c2cccc(-c3ccccc3)c2)cc1 | 1.7
Fc1ccc(-c2nc3ccccn3c2-c2cccc(-c3ccncc3)c2)cc1 | 2.3
Fc1ccc(-c2nc3ccccn3c2-c2cccc(-c3ccco3)c2)cc1 | 1.9
Fc1ccc(-c2nc3ccccn3c2-c2cccc(-c3cc4ccccc4o3)c2)cc1 | 2
Fc1ccc(-c2nc3ccc(-c4ccccc4)cn3c2-c2cccc(-c3ccccc3)c2)cc1 | 1.09
COc1cccc(-c2cccc(-c3c(-c4ccc(F)cc4)nc4ccccn34)c2)c1 | 11.8

Task: // lookup Ratio CC50/EC50 for Fc1ccc(-c2nc3ccccn3c2-c2cccc(-c3ccoc3)c2)cc1
Output: 3.4

Task: Next molecule up: CC(C)(C)c1nc2ccc(-c3ccsc3)nn2c1-c1cccc(-c2ccc(O)cc2)c1
Output: 3
